System: CP260
Test: qHTS profiling for inhibitors of Plasmodium falciparum proliferation (AID 504749); also: nearly all actives have a fitted effect of over 60% in size
Details: P. falciparum in erythrocytes, SYBR Green DNA, 72 h; series mostly up to 28.7 µM
Experimental: NIH National Institute of Allergy and Infectious Diseases [NIAID] NIH Chemical Genomics Center [NCGC] […] Because mature erythrocytes lack DNA, only Plasmodium-derived DNA is detected. NCGC Assay Protocol Summary: The SYBR Green viability assay was adapted from a method described previously (Plouffe et al., 2008). […] The following morning, fluorescence intensity at 485(14) nm excitation and 535(25) nm emission wavelengths was measured on an EnVision (Perkin Elmer) plate reader. […]
Inconclusive results are not listed. The source made the active and inactive calls. Calls follow the shape of the dose curve; as a rule, active = well fitted inhibition curve with a large enough effect; inconclusive = small, poorly fitted or top-dose-only effect; inactive = flat fitted curve, though single readings scatter.
Outcomes: Yes = active, No = inactive

>>> df
                                   molecule  group
0  O=C1NCN(c2ccccc2)C12CCN(CCCC(c1ccc(F)cc1)c1ccc(F)cc1)CC2    Yes
1  CC(=O)[C@@]1(O)CC[C@H]2[C@@H]3CCC4=CC(=O)CC[C@]4(C)[C@H]3CC[C@@]21C     No
2  COC(=O)C1=C(C)NC(C)=C(C(=O)OC(C)(C)CN(C)CCC(c2ccccc2)c2ccccc2)C1c1cccc([N+](=O)[O-])c1 (stereo unspecified)    Yes
3          C[C@H](CS)C(=O)N1CCC[C@H]1C(=O)O     No
4     Cc1cc(C)c(/C=C2\C(=O)Nc3ccccc32)[nH]1     No
5       CN(C)CC[C@@H](c1ccc(Br)cc1)c1ccccn1     No

* * *

Test system: CP237
Experiment: qHTS profiling for inhibitors of Plasmodium falciparum proliferation (AID 504749); also: nearly all actives have a fitted effect of over 60% in size
Details: P. falciparum in erythrocytes, SYBR Green DNA, 72 h; series mostly up to 28.7 µM
Description: NIH National Institute of Allergy and Infectious Diseases [NIAID] NIH Chemical Genomics Center [NCGC] […] Because mature erythrocytes lack DNA, only Plasmodium-derived DNA is detected. NCGC Assay Protocol Summary: The SYBR Green viability assay was adapted from a method described previously (Plouffe et al., 2008). […] The following morning, fluorescence intensity at 485(14) nm excitation and 535(25) nm emission wavelengths was measured on an EnVision (Perkin Elmer) plate reader. […]
Records with an inconclusive call do not appear. Activity calls are given as the source filed them. Calls follow the shape of the dose curve; as a rule, active = well fitted inhibition curve with a large enough effect; inconclusive = small, poorly fitted or top-dose-only effect; inactive = flat fitted curve, though single readings scatter.
Outcomes: Y for active, N for inactive

                                    compound  test_system  group
 0  CN(C(=O)CCCOc1ccc2[nH]c(=O)ccc2c1)C1CCCCC1        CP237      N
 1              CCCN(CCC)CCc1cccc2c1CC(=O)N2        CP237      N
 2  COC(=O)[C@H]1[C@H]2C[C@@H]3c4[nH]c5cc(OC)ccc5c4CCN3C[C@H]2C[C@@H](OC(=O)c2cc(OC)c(OC)c(OC)c2)[C@@H]1OC        CP237      Y
 3  CCCCCN(CCCCC)C(=O)C(CCC(=O)O)NC(=O)c1ccc(Cl)c(Cl)c1 (stereo not given)        CP237      N
 4  C=CCc1ccccc1OCC(O)CNC(C)C (stereo not given)        CP237      Y
 5  OC(CCN1CCCCC1)(c1ccccc1)C1CCCCC1 (stereo not given)        CP237      N
 6  NC1=NCC2c3ccccc3Cc3ccccc3N12 (stereo not given)        CP237      N
 7  COC(=O)C1=C(C)NC(C)=C(C(=O)OC(C)(C)CN(C)CCC(c2ccccc2)c2ccccc2)C1c1cccc([N+](=O)[O-])c1 (stereo not given)        CP237      Y
 8  O=C(CCCN1CCC(O)(c2cccc(C(F)(F)F)c2)CC1)c1ccc(F)cc1        CP237      Y
 9      Cc1ccc(S(=O)(=O)NC(=O)NN2CCCCCC2)cc1        CP237      N
10  COc1cc(C(=O)OCCCN2CCCN(CCCOC(=O)c3cc(OC)c(OC)c(OC)c3)CC2)cc(OC)c1OC        CP237      Y
11                CC(=O)Nc1nnc(S(N)(=O)=O)s1        CP237      N
12    OCCN1CCN(CCCN2c3ccccc3C=Cc3ccccc32)CC1        CP237      Y
13  CCNC(=O)N1CCN(CCCC(c2ccc(F)cc2)c2ccc(F)cc2)CC1        CP237      Y
14         CCCCNc1c(C(=O)OCC)c(C)nc2c1cnn2CC        CP237      N
15  CC(=O)[C@]1(O)Cc2c(O)c3c(c(O)c2[C@@H](O[C@H]2C[C@H](N)[C@H](O)[C@H](C)O2)C1)C(=O)c1ccccc1C3=O        CP237      Y
16  CC(=O)[C@@]1(O)CC[C@H]2[C@@H]3CCC4=CC(=O)CC[C@]4(C)[C@H]3CC[C@@]21C        CP237      N
17  CNC1(C)C2CCC(C2)C1(C)C (stereo not given)        CP237      Y
18  NC(=O)c1ncn([C@@H]2O[C@H](CO)[C@@H](O)[C@H]2O)c1O        CP237      N
19                  FC(F)(F)c1ccccc1-n1ccnc1        CP237      N
